Origin of the recorded values: ChEMBL document CHEMBL1909046

# MEASURED ON: Vasoactive intestinal polypeptide receptor 1 (Homo sapiens)
# Sequence (P32241 whole entry): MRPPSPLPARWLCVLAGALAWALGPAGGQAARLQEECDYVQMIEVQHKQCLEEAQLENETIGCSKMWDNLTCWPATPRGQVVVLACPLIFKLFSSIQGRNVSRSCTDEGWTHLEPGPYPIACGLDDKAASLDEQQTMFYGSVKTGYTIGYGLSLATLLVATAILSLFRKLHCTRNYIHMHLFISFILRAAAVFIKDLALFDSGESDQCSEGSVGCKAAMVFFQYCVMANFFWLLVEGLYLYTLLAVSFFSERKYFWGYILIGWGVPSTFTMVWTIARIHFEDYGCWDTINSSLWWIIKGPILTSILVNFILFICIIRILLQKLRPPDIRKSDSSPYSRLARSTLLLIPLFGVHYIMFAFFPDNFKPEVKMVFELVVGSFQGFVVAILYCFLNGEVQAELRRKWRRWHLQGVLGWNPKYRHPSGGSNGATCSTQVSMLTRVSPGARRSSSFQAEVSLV
# Type: cell membranes, Membrane
# CONDITION INFO: ht-29
READOUT LABEL: IC50

CC(C)NCC(O)c1ccc(O)c(O)c1 (stereo not given) [ISOPROTERENOL]: Not Active
COc1cc(N)c(Cl)cc1C(=O)NC1CCN(CCCOc2ccc(F)cc2)CC1OC (stereo not given) [CISAPRIDE]: Not Active
CNCCC(Oc1ccc(C(F)(F)F)cc1)c1ccccc1 (stereo not given) [FLUOXETINE]: Not Active
CC(C(=O)O)c1ccc2oc(-c3ccc(Cl)cc3)nc2c1 (stereo not given) [BENOXAPROFEN]: Not Active

Okay, now this compound:
Param readout= IC50; system= Vasoactive intestinal polypeptide receptor 1 (Homo sapiens); entry= Brc1c(NC2=NCCN2)ccc2nccnc12 [BRIMONIDINE] ; returns value. Also: in other assays of this panel Not Active means under 50% inhibition at 10 µM.
Not Active
